Biological target: 5-hydroxytryptamine receptor 7 (Homo sapiens)
Sequence (P34969 whole entry): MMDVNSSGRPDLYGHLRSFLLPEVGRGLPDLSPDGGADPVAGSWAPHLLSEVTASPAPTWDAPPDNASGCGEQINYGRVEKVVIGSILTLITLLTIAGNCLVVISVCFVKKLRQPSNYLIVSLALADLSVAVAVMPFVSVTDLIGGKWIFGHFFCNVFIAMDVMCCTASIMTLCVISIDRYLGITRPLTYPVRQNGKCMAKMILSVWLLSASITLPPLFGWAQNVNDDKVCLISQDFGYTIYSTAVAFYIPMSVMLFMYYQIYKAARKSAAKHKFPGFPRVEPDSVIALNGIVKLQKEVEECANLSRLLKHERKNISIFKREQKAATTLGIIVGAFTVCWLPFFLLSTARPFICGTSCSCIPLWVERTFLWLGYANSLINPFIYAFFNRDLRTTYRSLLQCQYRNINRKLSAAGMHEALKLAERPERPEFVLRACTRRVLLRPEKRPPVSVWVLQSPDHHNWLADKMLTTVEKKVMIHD
Test: Displacement of [3H]5-HT from human 5-HT7 receptor expressed in HEK293 cells after 30 mins by microbeta counting analysis
Assay type: cell-based
quantity.kind: log10 of Ki (log10 of the value in µM)
Transform log10 | Measure Ki | Unit µM

CN(CCCN1CCC(N(c2ccccc2)c2ccccc2)CC1)c1cccc(O)c1: -0.51
Cc1cccc(N(C)CCCN2CCN(c3ccccc3)CC2)c1: -1.07
CCCN(CCCN1CCN(c2ccccc2)CC1)c1cccc(O)c1: -1.68
CN(CCCN1CCN(c2ccccc2)CC1)c1cccc(NS(C)(=O)=O)c1: -1.40
CN(CCCN1CCN(c2ccccc2)CC1)c1cccc(O)c1: -1.70

Below are 3 compounds. Give each one its log10 of Ki.
1. CN(CCCN1CCN(c2cccc3ccccc23)CC1)c1cccc(O)c1
2. CC(=O)Nc1cccc(N(C)CCCN2CCN(c3ccccc3)CC2)c1
3. CN(CCCCCCN1CCC(c2ccccc2)CC1)c1cccc(O)c1

RESULT:
-2.54
-0.79
-0.65

Could I get log10 of Ki for every one of these entries?
1. Oc1ccc2[nH]cc(CCN3CCN(c4cccc5ccccc45)CC3)c2c1
2. CN(CCCCN1CCN(c2ccccc2)CC1)c1cccc(O)c1
3. O=Cc1cccc(NCCCN2CCN(c3ccccc3)CC2)c1

RESULT:
-1.94
-1.52
-1.88
